# measurement target: mu opiate receptor (MOR) (Rattus norvegicus, UniProt P33535)
# Construct: from tissue; host or cells: striatal tissue (membrane preparation)
# Sequence (P33535 whole entry): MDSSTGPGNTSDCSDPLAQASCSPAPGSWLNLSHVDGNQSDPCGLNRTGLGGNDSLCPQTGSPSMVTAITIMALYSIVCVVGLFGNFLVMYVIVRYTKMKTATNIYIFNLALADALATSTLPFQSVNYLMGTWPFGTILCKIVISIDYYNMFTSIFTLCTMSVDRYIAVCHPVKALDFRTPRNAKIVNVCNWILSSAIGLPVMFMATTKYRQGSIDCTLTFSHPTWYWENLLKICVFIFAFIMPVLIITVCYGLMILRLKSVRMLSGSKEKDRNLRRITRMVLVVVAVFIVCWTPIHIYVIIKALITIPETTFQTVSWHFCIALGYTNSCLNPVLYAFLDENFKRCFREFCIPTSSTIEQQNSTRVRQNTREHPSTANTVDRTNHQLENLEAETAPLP
# assay procedure: [35S]GTPγS binding assay using striatal membranes (MOR agonist activity)
# Assay type: biochemical
# Parameters: reference not given here
# condition label: 0.1 μM compound, striatal membranes
# Description: To assess the mu opiate receptor (MOR) agonist activity of positive compounds from the FLNA screening, compounds were tested in a [^35S]GTPγS binding assay using striatal membranes. […] The immunocomplexes so formed were collected by incubation at 25° C. for 30 minutes with 40 μl of agarose-conjugated protein A/G beads and centrifugation at 5,000×g at 4° C. for 5 minutes. […] The radioactivity in the suspension was determined by liquid scintillation spectrometry. […]
Reported MOR agonist activity, [35S]GTPγS binding to Gαo, 0.1 μM values for a set of molecules
Answer format: numeric, % implied, no suffix.

# annotated cases, reported MOR agonist activity, [35S]GTPγS binding to Gαo, 0.1 μM shown
INSERT INTO measurements (molecule, value_units, value_reported) VALUES
  ('COCOc1ccc(CCC(=O)CC2c3c(cc4c(c3OC)OCO4)CC[N+]2(C)C)cc1.[I-] (stereo not drawn)', '%', 146.0),
  ('COc1ccccc1C(=O)CC1c2c(cc3c(c2OC)OCO3)CC[N+]1(C)C (stereo not drawn)', '%', 159.6),
  ('COCOc1ccc(C(=O)CC2c3c(cc4c(c3OC)OCO4)CC[N+]2(C)C)cc1C.[I-] (stereo not drawn)', '%', 61.6),
  ('COc1ccc(CC(=O)CC2c3c(cc4c(c3OC)OCO4)CC[N+]2(C)C)c(OC)c1 (stereo not drawn)', '%', 171.9),
  ('COc1cc(C(=O)CC2c3c(cc4c(c3OC)OCO4)CC[N+]2(C)C)cc(OC)c1OC (stereo not drawn)', '%', 119.8),
  ('COc1ccc(C(=O)CC2c3c(cc4c(c3OC)OCO4)CC[N+]2(C)C)cc1 (stereo not drawn)', '%', 155.8),
  ('COc1cccc(CC(=O)CC2c3c(cc4c(c3OC)OCO4)CC[N+]2(C)C)c1OC (stereo not drawn)', '%', 147.5),
  ('COc1ccc(CCCCC2c3c(cc4c(c3OC)OCO4)CC[N+]2(C)C)cc1 (stereo not drawn)', '%', 174.7);

Can you share its MOR agonist activity, [35S]GTPγS binding to Gαo, 0.1 μM? I mean this molecule: COc1ccc(C(=O)CC2c3c(cc4c(c3OC)OCO4)CC[N+]2(C)C)cc1C.[I-] (stereo not drawn) 126.9

Origin of measurements: patent US20100280061A1
